Biological target: USP28 (Homo sapiens (Human), UniProt Q96RU2)
Sequence (Q96RU2 whole entry): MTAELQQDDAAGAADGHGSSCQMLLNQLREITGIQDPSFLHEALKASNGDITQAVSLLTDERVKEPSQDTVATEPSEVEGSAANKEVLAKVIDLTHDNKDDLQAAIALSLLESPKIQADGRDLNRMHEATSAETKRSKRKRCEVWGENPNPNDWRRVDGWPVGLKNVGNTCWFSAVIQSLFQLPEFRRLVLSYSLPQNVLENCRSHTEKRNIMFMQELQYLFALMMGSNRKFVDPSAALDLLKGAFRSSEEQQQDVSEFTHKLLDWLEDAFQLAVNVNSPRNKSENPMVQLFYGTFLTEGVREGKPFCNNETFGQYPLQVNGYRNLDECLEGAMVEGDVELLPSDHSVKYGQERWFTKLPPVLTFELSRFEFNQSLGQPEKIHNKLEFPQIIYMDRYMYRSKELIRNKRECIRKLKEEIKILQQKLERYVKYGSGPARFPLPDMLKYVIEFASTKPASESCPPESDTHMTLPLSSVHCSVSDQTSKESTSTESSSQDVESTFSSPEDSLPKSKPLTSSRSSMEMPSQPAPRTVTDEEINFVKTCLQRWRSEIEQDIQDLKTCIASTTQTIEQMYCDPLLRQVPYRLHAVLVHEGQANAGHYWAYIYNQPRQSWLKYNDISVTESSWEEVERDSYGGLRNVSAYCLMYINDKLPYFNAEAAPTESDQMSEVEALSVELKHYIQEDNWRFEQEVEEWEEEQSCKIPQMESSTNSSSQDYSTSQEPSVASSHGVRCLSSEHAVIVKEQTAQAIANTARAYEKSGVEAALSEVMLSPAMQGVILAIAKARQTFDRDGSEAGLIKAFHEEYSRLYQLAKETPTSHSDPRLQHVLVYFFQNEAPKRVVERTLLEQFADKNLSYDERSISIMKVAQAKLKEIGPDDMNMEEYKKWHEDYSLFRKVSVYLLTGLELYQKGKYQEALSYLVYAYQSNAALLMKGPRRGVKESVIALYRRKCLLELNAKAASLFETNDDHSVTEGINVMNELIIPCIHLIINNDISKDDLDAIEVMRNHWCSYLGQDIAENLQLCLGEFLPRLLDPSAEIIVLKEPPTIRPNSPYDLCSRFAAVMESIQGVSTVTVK
IC50 overview

MOLECULE	REPORTED_MEASUREMENT
Cc1ccc2c(N)c(C(=O)NC[C@H](C)c3ccc(N4CCNCC4)cc3)sc2n1 (single isomer, unassigned)	0.2 to 2 µM

q: Given the molecule CN1CCC(c2ccc(CCNC(=O)c3sc4nc(Cl)ccc4c3N)cc2)CC1 , what is its reported IC50?
a: < 0.2 µM

q: And what about the molecule CCOc1cc(CCNC(=O)c2sc3nc(C)ccc3c2N)ccc1N1CCNCC1 ?
a: 0.2 to 2 µM

q: And what about the molecule Cc1ccc2c(N)c(C(=O)NCCc3ccc(N4CCNCC4)c(-c4cnn(C(F)F)c4)c3)sc2n1 ?
a: 2 to 10 µM

q: And what about the molecule Cc1ccc2c(N)c(C(=O)NCCc3ccc(N4CCNCC4)cc3F)sc2n1 ?
a: 0.2 to 2 µM

q: And what about the molecule Cc1cc(N)nc2sc(C(=O)NCCc3ccc(N4CCNCC4)cc3)c(N)c12 ?
a: 0.2 to 2 µM

q: And what about the molecule Cc1ccc2c(N)c(C(=O)NCCc3cc(F)c(N4CCN[C@@H](C)C4)cc3F)sc2n1 ?
a: 0.2 to 2 µM

q: And what about the molecule Cc1cc(C(F)F)c2c(N)c(C(=O)NCCc3ccc(N4CCNCC4)cc3)sc2n1 ?
a: < 0.2 µM

q: And what about the molecule Cc1ccc2c(N)c(C(=O)NCCc3ccc(-n4ncc5c4CNC5)cc3)sc2n1 ?
a: 0.2 to 2 µM

q: And what about the molecule Cc1ccc2c(N)c(C(=O)NC[C@H](C)c3cc(F)c(N4CCNCC4)cc3F)sc2n1 ?
a: 0.2 to 2 µM

* * *

IC50, USP28 (Homo sapiens (Human), UniProt Q96RU2), per-entry values.

MOLECULE	MEASURED_ON	IC50
Nc1c(C(=O)NCCc2ccc(N3CCNCC3)cc2)sc2ncc3c(c12)CCC3 [Compound I-28]	USP28 (Homo sapiens (Human), UniProt Q96RU2)	2000 to 10000 nM
Cc1ccc2c(N)c(C(=O)NCCc3cc(F)c(N4CCN[C@H](C)C4)cc3F)sc2n1 [Example I-209]	USP28 (Homo sapiens (Human), UniProt Q96RU2)	10000 to 25000 nM
Cc1ccc2c(N)c(C(=O)NCCc3ccc(-n4ncc5c4CNC5)cc3F)sc2n1 [Compound I-41]	USP28 (Homo sapiens (Human), UniProt Q96RU2)	< 200 nM

q: GET /values?readout=IC50&system=USP28 (Homo sapiens (Human), UniProt Q96RU2)&item= Cc1ccc2c(N)c(C(=O)NCCc3ccc(N4CC[C@H](N(C)C)C4)cc3)sc2n1 [Example I-118]
a: 200 to 2000 nM

* * *

IC50, USP25 (Homo sapiens (Human), UniProt Q9UHP3), per-entry values.

Known results for compounds:
COMPOUND	IC50
Cc1ccc2c(N)c(C(=O)NCCc3ccc(N4CCN(C5CCC5)CC4)cc3)sc2n1	200 to 2000 nM
CCc1ccc2c(N)c(C(=O)NCCc3ccc(N4CCNCC4)cc3)sc2n1	< 200 nM
Cc1nc2sc(C(=O)NC[C@@H](C)c3cc(F)c(N4CCNCC4)cc3F)c(N)c2cc1F	2000 to 10000 nM
COCCN1CCN(c2ccc(CCNC(=O)c3sc4nc(C)ccc4c3N)cc2)CC1	2000 to 10000 nM
CN1CCC(c2ccc(CCNC(=O)c3sc4nc(Cl)ccc4c3N)cc2)CC1	200 to 2000 nM
Cc1nc2sc(C(=O)NC[C@H](C)c3cc(F)c(N4CCNCC4)cc3F)c(N)c2cc1F	2000 to 10000 nM
COc1ccc2c(N)c(C(=O)NCCc3ccc(N4CCNCC4)cc3)sc2n1	200 to 2000 nM
C[C@H](CNC(=O)c1sc2ncc(F)cc2c1N)c1cc(F)c(N2CC3CCC(C2)N3)cc1F (single isomer, unassigned)	2000 to 10000 nM
Cc1ccc2c(N)c(C(=O)NCCc3ccc(C4CCNCC4)cc3F)sc2n1	200 to 2000 nM
Cc1ccc2c(N)c(C(=O)NCCc3ccc(N4CC5CCC(C4)N5)c(F)c3)sc2n1	200 to 2000 nM

q: GET /values?readout=IC50&system=USP25 (Homo sapiens (Human), UniProt Q9UHP3)&item= Cc1ccc2c(N)c(C(=O)NCCc3ccc(N4CCNCC4)c4c3CCC4)sc2n1
a: < 200 nM

q: And what about the compound Nc1c(C(=O)NCCc2ccc(N3CCNCC3)c(Cl)c2)sc2ncc(Cl)cc12 ?
a: 2000 to 10000 nM
